Molecular target: Rsk2 CTD (Homo sapiens, UniProt P51812)
Construct: We tested the halomethylketones against the Rsk2 CTD by adapting an in vitro kinase assay; made in house
Sequence (P51812 422-679 limits assumed): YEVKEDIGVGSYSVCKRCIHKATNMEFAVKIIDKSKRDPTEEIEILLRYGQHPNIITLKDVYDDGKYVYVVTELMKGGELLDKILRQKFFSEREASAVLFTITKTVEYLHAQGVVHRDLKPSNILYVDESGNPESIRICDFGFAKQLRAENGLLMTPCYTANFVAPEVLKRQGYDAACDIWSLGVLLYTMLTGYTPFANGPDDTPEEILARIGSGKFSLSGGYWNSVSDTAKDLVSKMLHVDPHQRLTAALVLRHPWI
Assay: Rsk2 CTD in vitro kinase assay, wild type
Assay type: biochemical
Conditions: read-out: IC50 for RSK2
ENDPOINT_LABEL: IC50

Incoming: Enter recorded IC50 with Rsk2 CTD (Homo sapiens, UniProt P51812) for C#CCNCCCn1c(C(=O)CF)c(-c2ccc(C)cc2)c2c(N)ncnc21 [propargylamine-fmk 18] here.
Outgoing: < 1000 nM

====

Biological target: Rsk2 CTD (Homo sapiens, UniProt P51812)
Construct: We tested the halomethylketones against the Rsk2 CTD by adapting an in vitro kinase assay; made in house
Assay: Rsk2 CTD in vitro kinase assay, wild type
Assay type: biochemical
Conditions: Rsk2 CTD WT; read-out: IC50 values, WT
ENDPOINT_LABEL: IC50 (nM)
Answer in nM, number only, no unit symbol.

Incoming: Kindly indicate its recorded IC50. Item: Cc1ccc(-c2cn(CCCO)c3ncnc(N)c23)cc1
Outgoing: 1200

====

Target: V281C v-Src (v-Src-es1) (UniProt P00524, V281C, species not given)
Construct: other: pretreatment of intact cells; lysates treated with biotin; Labeling of v-Src-es1 by biotin-cmk after pretreatment; other: pretreatment of intact cells with 1 μM
Assay: Covalent labeling by biotin-cmk in NIH3T3 fibroblasts expressing v-Src-es1
Conditions: read-out: IC50 for blocking labeling of v-Src-es1 by biotin-cmk; pretreatment of intact cells; lysates treated with biotin-cmk 2 μM
ENDPOINT_LABEL: IC50

Incoming: Kindly indicate its recorded IC50. Item: Cc1ccc(-c2c(C(=O)CCl)n(CCCO)c3ncnc(N)c23)cc1 [cmk 4]
Outgoing: < 100 nM

====

Molecular target: Rsk2 CTD Cys436Val (Homo sapiens, UniProt P51812, C436V)
Construct: we expressed and purified two CTD mutants, Cys436Val and Thr493Met
Experiment: Rsk2 CTD in vitro kinase assay, Cys436Val mutant
Settings: Rsk2 CTD C436V
Text: We tested the halomethylketones against the Rsk2 CTD by adapting an in vitro kinase assay developed by Chrestensen and Sturgill, J, Biol. Chem. 277:27733 (2002).
ENDPOINT_LABEL: pIC50
Scale: negative log10 of molar concentration, which is what pIC50 denotes.

Incoming: Enter recorded pIC50 with Rsk2 CTD Cys436Val (Homo sapiens, UniProt P51812, C436V) for Cc1ccc(-c2cn(CCCO)c3ncnc(N)c23)cc1 [scaffold A] here.
Outgoing: 6.37
